biological target: bromodomain BRD4 (44-168), BRD4 (333-460), and BRD4 (1-477 or 44-460) (Homo sapiens, UniProt O60885); construct: BRD4(44-168), BRD4(333-460), BRD4(44-460), BRD4(1-477), O60885-1; fused on or other part: N-terminal BirA biotinylation motif, biotinylated; The TVMV-cleavable His6 tag is removed, except in some BRD4(44-460) runs detected with anti-His terbium cryptate; test: Time Resolved Fluorescence Resonance Energy Transfer (TR-FRET) binding assay; conditions: one of the FRET assays described
Property: IC50

Lab book: IC50 of "Cc1noc(C)c1-c1cc(C(N)=O)c2c3ccc(C(C)(C)O)cc3n(CC3CCOCC3)c2c1" noted as < 50 nM

Lab book: IC50 of Cc1ccc(Cn2c3ccc(C(=O)N4CC(C)OC(C)C4)cc3c3ccc(-c4c(C)noc4C)cc32)cc1 (stereo not drawn) noted as < 500 nM

Lab book: IC50 of Cc1noc(C)c1-c1ccc2c3cc(C(=O)N4CC(C)OC(C)C4)ccc3n(CC(C)C)c2c1 (stereo not drawn) noted as < 500 nM

Lab book: IC50 of "Cc1noc(C)c1-c1cc(C(=O)N(C)C)c2c3cc(C(=O)N4C[C@@H](C)O[C@@H](C)C4)ccc3n(Cc3ccccc3)c2c1" noted as < 500 nM

Lab book: IC50 of Cc1noc(C)c1-c1cc(C(N)=O)c2c3ccc(C(C)(C)O)c(F)c3n(C(c3ccc(F)cc3)C3CCOCC3)c2c1 (single isomer, unassigned) [Example 224] noted as < 50 nM

Lab book: IC50 of Cc1noc(C)c1-c1cc(C(N)=O)c2c3cc(C(=O)N4CCC4C)ccc3n(Cc3ccccc3)c2c1 (stereo not drawn) noted as < 50 nM

Lab book: IC50 of "Cc1noc(C)c1-c1cc(C(N)=O)c2c3cc(NCC#N)ccc3n(Cc3ccccc3)c2c1" noted as < 50 nM

Lab book: IC50 of Cc1noc(C)c1-c1cc(C(N)=O)c2c3cc(C(=O)N4CC(C)OC(C)C4)ccc3n(Cc3cccc(F)c3F)c2c1 (stereo not drawn) noted as < 50 nM

Lab book: IC50 of COc1ccc2c(c1)c1c(C(N)=O)cc(-c3c(C)noc3C)cc1n2C(C)c1ccccc1 (stereo not drawn) [Example 176] noted as < 50 nM

Lab book: IC50 of "Cc1noc(C)c1-c1cc(C(N)=O)c2c3cc(N)ccc3n(Cc3ccccc3)c2c1" noted as < 50 nM

Lab book: IC50 of Cc1cccc(Cn2c3ccc(C(=O)N4CC(C)OC(C)C4)cc3c3ccc(-c4c(C)noc4C)cc32)c1 (stereo not drawn) noted as < 500 nM

Lab book: IC50 of "COc1ccc2c(c1)c1c(C(N)=O)cc(-c3c(C)noc3C)cc1n2Cc1ccccc1" noted as < 50 nM

Lab book: IC50 of "Cc1noc(C)c1-c1cc(C(N)=O)c2c3cc(C(=O)N4CCCOCC4)ccc3n(Cc3ccccc3)c2c1" noted as < 50 nM

Lab book: IC50 of "CNC(=O)c1cc(-c2c(C)noc2C)cc2c1c1cc(C(=O)N3CC(F)C3)ccc1n2Cc1c(F)cccc1F" noted as < 50 nM

Lab book: IC50 of Cc1noc(C)c1-c1cc(C(N)=O)c2c3cc(C(=O)N4CC(F)C4)ccc3n(C(C)c3ccc(F)cc3)c2c1 (stereo not drawn) noted as < 50 nM

* * *

target: bromodomain BRD4 (44-168), BRD4 (333-460), and BRD4 (1-477 or 44-460) (Homo sapiens, UniProt O60885); construct: BRD4(44-168), BRD4(333-460), BRD4(44-460), BRD4(1-477), O60885-1; fused on or other part: N-terminal BirA biotinylation motif, biotinylated; The TVMV-cleavable His6 tag is removed, except in some BRD4(44-460) runs detected with anti-His terbium cryptate; assay: Time Resolved Fluorescence Resonance Energy Transfer (TR-FRET) binding assay; conditions: one of the FRET assays described
pIC50: −log10 of the molar value.
Property: pIC50

Lab book: pIC50 of CCNC(=O)c1cc(-c2c(C)noc2C)cc2[nH]c3ccc(N4CCCOC4=O)cc3c12 [Example 154] noted as > 5.12

Lab book: pIC50 of Cc1noc(C)c1-c1cc(C(N)=O)c2c3ccc(C(C)(C)O)cc3n(C[C@@]3(F)C[C@@H]4CC[C@H]3O4)c2c1 (relative stereo) [Example 225] noted as > 7.30

Lab book: pIC50 of CCNC(=O)c1cc(-c2c(C)noc2C)cc2c1c1cc(C(=O)N3CC(F)C3)ccc1n2Cc1ccc(F)cc1 [Example 126] noted as > 7.30

Lab book: pIC50 of CNC(=O)c1cc(-c2c(C)noc2C)cc2[nH]c3ccc(C(=O)N4CC(F)C4)cc3c12 [Example 101] noted as > 6.30

Lab book: pIC50 of Cc1noc(C)c1-c1cc(C(N)=O)c2c3ccc(C(=O)N4CCOCC4)cc3n(C(c3ccccc3)c3ccccc3)c2c1 [Example 196] noted as > 7.30

Lab book: pIC50 of Cc1noc(C)c1-c1cc(C(=O)NC(C)C)c2c3cc(C(=O)N4CC(F)C4)ccc3n(Cc3ccc(F)cc3)c2c1 [Example 127] noted as > 5.12

Lab book: pIC50 of CNC(=O)c1cc(-c2c(C)noc2C)cc2c1c1cc(C(=O)N3CC(F)C3)ccc1n2CC1CCC1 [Example 114] noted as > 7.30

Lab book: pIC50 of CNC(=O)c1cc(-c2c(C)noc2C)cc2c1c1cc(C(=O)N3CC(F)C3)ccc1n2C(C)c1ccc(Cl)cc1 (centres unmarked) [Example 111] noted as > 7.30

Lab book: pIC50 of Cc1noc(C)c1-c1cc(C(=O)N2CC(F)C2)c2c3cc(C(=O)N4CC(F)C4)ccc3n(Cc3ccc(F)cc3)c2c1 [Example 129] noted as > 6.30

Lab book: pIC50 of CCCn1c2ccc(C(=O)N3CC(C)OC(C)C3)cc2c2ccc(-c3c(C)noc3C)cc21 (centres unmarked) [Example 3] noted as > 6.30

Lab book: pIC50 of Cc1noc(C)c1-c1cc(C(N)=O)c2c3cc(C(=O)N4CC(F)C4)ccc3n(C(C)c3ccccc3)c2c1 (centres unmarked) [Example 85] noted as > 7.30

Lab book: pIC50 of Cc1noc(C)c1-c1cc(C(N)=O)c2c3cc(C(=O)N4CCOCC4(C)C)ccc3n(Cc3ccccc3)c2c1 [Example 49] noted as > 5.12

Lab book: pIC50 of Cc1noc(C)c1-c1cc(C(N)=O)c2c3cc(C(=O)N4C(C)(C)CC(O)CC4(C)C)ccc3n(Cc3ccccc3)c2c1 [Example 63] noted as > 7.30

Lab book: pIC50 of Cc1noc(C)c1-c1cc(C(N)=O)c2c3cc(C(=O)N4CC(C)OC(C)C4)ccc3n(Cc3ccc(F)cc3F)c2c1 (centres unmarked) [Example 36] noted as > 7.30

* * *

biological target: bromodomain BRD4 (44-168), BRD4 (333-460), and BRD4 (1-477 or 44-460) (Homo sapiens); construct: BRD4(44-168), BRD4(333-460), BRD4(44-460), BRD4(1-477), O60885-1; fused on or other part: N-terminal BirA biotinylation motif, biotinylated; The TVMV-cleavable His6 tag is removed, except in some BRD4(44-460) runs detected with anti-His terbium cryptate; assay: Time Resolved Fluorescence Resonance Energy Transfer (TR-FRET) binding assay; details: one of the FRET assays described
pIC50: −log10 of the molar value.
Would you kindly list pIC50 for each of these molecules?

Lab book: pIC50 of "Cc1noc(C)c1-c1cc(C(N)=O)c2c3ccc(C(C)C)cc3n([C@H](c3ccccc3)C3CCOCC3)c2c1" noted as > 7.30

Lab book: pIC50 of "CC(=O)Nc1ccc2c(c1)c1c(C(N)=O)cc(-c3c(C)noc3C)cc1n2Cc1ccccc1" noted as > 7.30

Lab book: pIC50 of Cc1noc(C)c1-c1ccc2c3cc(C(=O)N4CC(C)OC(C)C4)ccc3n(Cc3ccccc3Cl)c2c1 (stereo not shown) noted as > 6.30

Lab book: pIC50 of Cc1noc(C)c1-c1ccc2c3cc(C(=O)N4CC(C)OC(C)C4)ccc3n(Cc3cccc(F)c3)c2c1 (stereo not shown) noted as > 6.30

Lab book: pIC50 of "CCNC(=O)c1cc(-c2c(C)noc2C)cc2c1c1cc(N3CCCOC3=O)ccc1n2Cc1ccc(F)cc1" noted as > 5.12

Lab book: pIC50 of "CNC(=O)c1cc(-c2c(C)noc2C)cc2c1c1cc(C(=O)N3CC(F)C3)ccc1n2Cc1ccc(F)cc1F" noted as > 6.30

Lab book: pIC50 of "Cc1noc(C)c1-c1cc(C(N)=O)c2c3cc(C(=O)N4CCO[C@@H](C)C4)ccc3n(Cc3ccccc3)c2c1" noted as > 7.30

Lab book: pIC50 of "COC(=O)c1ccc2c3c(C#N)cc(-c4c(C)noc4C)cc3n(C(c3ccccc3)c3ccccc3)c2c1" noted as > 7.30

Lab book: pIC50 of "Cc1noc(C)c1-c1cc(C(N)=O)c2c3cc(C(=O)N4CCCC(C)(C)C4)ccc3n(Cc3ccccc3)c2c1" noted as > 7.30

Lab book: pIC50 of "Cc1noc(C)c1-c1cc(C(N)=O)c2c3cc(N4CCCOC4=O)ccc3n(Cc3cc(F)ccc3F)c2c1" noted as > 7.30

Lab book: pIC50 of "CNC(=O)c1cc(-c2c(C)noc2C)cc2[nH]c3ccc(N4CCCOC4=O)cc3c12" noted as > 6.30

Lab book: pIC50 of "Cc1noc(C)c1-c1cc(C(N)=O)c2c3cc(C(=O)N4CC(F)C4)ccc3n(Cc3ccc(F)cc3)c2c1" noted as > 7.30

Lab book: pIC50 of "Cc1noc(C)c1-c1cc(C(N)=O)c2c3cc(C(=O)N4CC(F)C4)ccc3n(CC3CC3)c2c1" noted as > 7.30

Lab book: pIC50 of "Cc1noc(C)c1-c1cc(C(N)=O)c2c3cc(N4CCCOC4=O)ccc3n(Cc3ccc(Cl)cc3)c2c1" noted as > 7.30

Lab book: pIC50 of "CNC(=O)c1cc(-c2c(C)noc2C)cc2c1c1cc(N3CCCOC3=O)ccc1n2Cc1ccccc1" noted as > 7.30

Lab book: pIC50 of "Cc1noc(C)c1-c1cc(C(N)=O)c2c3cc(C(=O)N4CC(F)(F)C4)ccc3n(Cc3ccc(Cl)cc3)c2c1" noted as > 7.30

Lab book: pIC50 of "Cc1noc(C)c1-c1cc(C(=O)NC2CC2)c2c3cc(C(=O)N4CC(F)C4)ccc3n(Cc3ccc(F)cc3)c2c1" noted as > 7.30

Lab book: pIC50 of Cc1csc(Cn2c3ccc(C(=O)N4CC(C)OC(C)C4)cc3c3c(C(N)=O)cc(-c4c(C)noc4C)cc32)n1 (stereo not shown) noted as > 7.30

Lab book: pIC50 of Cc1noc(C)c1-c1cc(C(N)=O)c2c3cc(C(=O)N4CCC(F)C4)ccc3n(Cc3ccc(Cl)cc3)c2c1 (stereo not shown) noted as > 7.30

Lab book: pIC50 of "CNC(=O)c1cc(-c2c(C)noc2C)cc2c1c1cc(NC)ccc1n2Cc1ccccc1" noted as > 7.30

Lab book: pIC50 of "Cc1noc(C)c1-c1cc(C(N)=O)c2c3cc(NCCO)ccc3n(Cc3ccccc3)c2c1" noted as > 7.30

Lab book: pIC50 of "Cc1noc(C)c1-c1cc(C(N)=O)c2c3cc(C(=O)N4C[C@@H](C)O[C@@H](C)C4)ccc3n(CC3CCC3)c2c1" noted as > 7.30
